# TEST: Quantitative High-Throughput drug screen in 47 multiple myeloma cell lines against the NCATS MIPE library collection: Karpas620_DSMZ cell viability assay (AID 1918959); also: nearly all actives have a fitted effect of over 30% in size; also: potency is read from the fitted curve at half-maximal effect
# STUDY_CONDITIONS: Karpas620 myeloma viability, CellTiter-Glo ATP luminescence, 48 h; series mostly up to 45.8 µM
Inconclusive results are not listed. The source made the active and inactive calls. Calls follow the shape of the dose curve; as a rule, active = well fitted cell-killing curve with a large enough effect; inconclusive = small, poorly fitted or top-dose-only effect, or effect the other way; inactive = no such curve, though single readings can be large or run the other way.
PROPERTY_LABEL: Potency

# example entries with known answers
COMPOUND	MEASURED_VALUE
Nc1ccn([C@@H]2O[C@H](CO)[C@@H](O)C2O)c(=O)n1 (stereo not given in full)	inactive
O=C(NCCO[N+](=O)[O-])c1cccnc1	inactive
C[C@]12CCC(=O)C=C1CC[C@@H]1[C@H]2[C@@H](O)C[C@@]2(C)[C@H]1CC[C@]2(O)C(=O)CO	inactive
NS(=O)(=O)c1cc(C(=O)O)c(NCc2ccco2)cc1Cl	inactive

Which measured Potency value corresponds to O=C(NCC1CCCCN1)c1cc(OCC(F)(F)F)ccc1OCC(F)(F)F (stereo not given) ?
1.32 µM (active)

Fill in the blank: the reported Potency of CCCCN(CCCC)CCC(O)c1cc2c(Cl)cc(Cl)cc2c2cc(C(F)(F)F)ccc12 (stereo not given) is ____.
inactive

Requested field: Potency. Item: CCN(CC)CCOc1ccc(Cc2ccccc2)cc1
14.8 µM (active)

Quick one: Potency for CC1=C(C(=O)O)N2C(=O)[C@@H](NC(=O)[C@H](N)C3=CCC=CC3)[C@H]2SC1 ?
inactive

For the compound shown here, O=C(NOCC1CC1)c1ccc(F)c(F)c1Nc1ccc(I)cc1Cl , give the reported Potency.
0.372 µM (active)

Tell me the measured Potency of C[C@H](Cn1cnc2c(N)ncnc21)OCP(=O)(O)O , please.
inactive

Attribution: PubChem BioAssay (NCATS)
